Please provide measured Population Pyknosed Nuclei (%) for the entries that follow.
# Tested on: Fibroblast
# Protocol Details: Multiplex assay against human fibroblast
# Assay type: toxicity, cell-based
# Run Conditions: 12 h, 1 µM, compound concentration 1 uM, replicate 2
Could you kindly put the unit after your number?

1) CN1CCN2c3ncccc3Cc3ccccc3C2C1 (configuration not stated) | 27%
2) O=C1COc2nccc(-c3ccccc3F)c2CN1Cc1cc(C(F)(F)F)cc(C(F)(F)F)c1 | 20%
3) CC(C)(C)c1ccc(S(=O)(=O)Nc2ccc(Cl)cc2C(=O)c2cc[n+]([O-])cc2)cc1 | 25%

Dear reader, for each entry below, please note its Population Pyknosed Nuclei (%).
1. Cc1ccccc1C(=O)Nc1ccc(C(=O)N2CCCC(N(C)C)c3ccccc32)cc1.Cl (configuration not stated)
2. C[C@H]1[C@H]2CC[C@H]3[C@@H]4CC=C5C[C@@H](N(C)C)CC[C@]5(C)[C@H]4CC[C@]23CN1C
3. O=S(=O)(c1ccccc1)c1cnc2c(N3CCNCC3)cccc2c1 [INTEPIRDINE]
4. Cl.Clc1ccc2nsnc2c1NC1=NCCN1 [TIZANIDINE HYDROCHLORIDE]
5. C[C@H](NC(=O)c1c(C(F)F)nn(C)c1Oc1cccc(C(F)(F)F)c1)c1ccc(C(=O)O)cc1
6. CCNC1(C(N)=O)CCN(c2ncnc3c2nc(-c2ccccc2Cl)n3-c2ccc(Cl)cc2)CC1
7. COc1c(C)cc(NC(=O)c2nn(Cc3ccc(F)cc3)c3c2CN(C(=O)c2ccc[nH]2)C[C@]3(C)C(N)=O)cc1C
8. N#Cc1c(N)nc(SCc2csc(-c3ccc(Cl)cc3)n2)c(C#N)c1-c1ccc(OCCO)cc1

21%
24%
24%
25%
23%
26%
31%
25%

Hey, quick one: what's Population Pyknosed Nuclei (%) for each of these?
1. c1cc(OCCCN2CCCCC2)ccc1CN1CCCCC1
2. CCCC(CCC)C(=O)O
3. COc1cc(C(=O)N(CCCc2ccccc2)Cc2ccc(CC(=O)O)cc2)cc(OC)c1C
4. CC[C@H]1OC(=O)[C@H](C)[C@@H](O[C@H]2C[C@@](C)(OC)[C@@H](O)[C@H](C)O2)[C@H](C)[C@@H](O[C@@H]2O[C@H](C)C[C@H](N(C)C)[C@H]2O)[C@@]2(C)CC(C)=C(O2)[C@H](C)[C@@H](O)[C@]1(C)O
5. CCCN1CCC[C@@H]2Cc3n[nH]cc3C[C@H]21.Cl [QUINPIROLE HYDROCHLORIDE]
6. N[C@@]1(C(=O)O)CO[C@H]2[C@H](C(=O)O)[C@H]21

23%
31%
16%
18%
17%
22%

* * *

Give measured Population Tubulin-Different-Phenotype (%) for each item. Keep answers brief.
# Test system: Fibroblast
# Protocol Details: Multiplex assay against human fibroblast
# Type: toxicity, cell-based
# Run Conditions: 48 h, 10 µM, compound concentration 10 uM, replicate 1
Give bare numbers, in %.

Please review the entries below; each comes with its answer.
1. O=C(NCCO)c1cccc(-c2cc(Nc3ccc(OC(F)(F)F)cc3)ncn2)c1 | 64
2. O=C(O)c1cc2ccccc2c(Cc2c(O)c(C(=O)O)cc3ccccc23)c1O [PAMOIC ACID] | 29
3. C[C@H]1[C@H]2CC[C@H]3[C@@H]4CC=C5C[C@@H](N(C)C)CC[C@]5(C)[C@H]4CC[C@]23CN1C [CONESSINE] | 25
4. O=C(NCC(=O)N1CC[C@H](N[C@H]2CC[C@@](O)(c3ccc(-c4ncccn4)cn3)CC2)C1)c1cccc(C(F)(F)F)c1 [PF-4136309] | 47
5. Cc1ccccc1C(=O)Nc1ccc(C(=O)N2CCCC(N(C)C)c3ccccc32)cc1.Cl (stereo unspecified) | 51
6. N[C@@]1(C(=O)O)CO[C@H]2[C@H](C(=O)O)[C@H]21 [LY-379268] | 19
7. CN(C)c1ccnc2sc3c(=O)n(N4CCCCCC4)cnc3c12 | 76
8. CCCn1c(=O)c2[nH]c(C3CCCC3)nc2n(CCC)c1=O | 50

Would you mind listing Population Tubulin-Different-Phenotype (%) for each of the following compounds?
1. N#Cc1c(N)nc(SCc2csc(-c3ccc(Cl)cc3)n2)c(C#N)c1-c1ccc(OCCO)cc1 [CAPADENOSON]
2. COc1c(C)cc(NC(=O)c2nn(Cc3ccc(F)cc3)c3c2CN(C(=O)c2ccc[nH]2)C[C@]3(C)C(N)=O)cc1C
3. COc1ccc2c(c1)C(C(=O)N(Cc1ccc(N(C)C)cc1)c1ccc(C(C)C)cc1)CCC2.Cl (stereo unspecified)
4. CSCC[C@H](NC=O)C(=O)N[C@@H](CC(C)C)C(=O)N[C@@H](Cc1ccccc1)C(=O)O
5. CC(=O)NCCc1c(Cc2ccccc2)[nH]c2ccccc12 [LUZINDOLE]

1: 78; 2: 92; 3: 71; 4: 24; 5: 34

// for each compound in input: emit Population Tubulin-Different-Phenotype (%)
1. COc1cc(C(=O)N(CCCc2ccccc2)Cc2ccc(CC(=O)O)cc2)cc(OC)c1C
2. CCOc1c2c(c(OCC)c3ncccc13)CN(c1ccc(CS(=O)(=O)NC(=O)Cc3ccccc3OC)cc1C)C2=O
3. CC[C@H]1OC(=O)[C@H](C)[C@@H](O[C@H]2C[C@@](C)(OC)[C@@H](O)[C@H](C)O2)[C@H](C)[C@@H](O[C@@H]2O[C@H](C)C[C@H](N(C)C)[C@H]2O)[C@@]2(C)CC(C)=C(O2)[C@H](C)[C@@H](O)[C@]1(C)O

1: 32; 2: 20; 3: 91

* * *

# Tested on: Fibroblast
# Protocol Details: Multiplex assay against human fibroblast
# Format: toxicity, cell-based
# Run Conditions: 24 h, 1 µM, compound concentration 1 uM, replicate 2
// NB: equality with 30% counts as false (0); only Population Fragmented Nuclei (%) strictly below is true (1)

1. CCCC(CCC)C(=O)O | true (1)
2. CCOc1c2c(c(OCC)c3ncccc13)CN(c1ccc(CS(=O)(=O)NC(=O)Cc3ccccc3OC)cc1C)C2=O | false (0)
3. O=C(NCC(=O)N1CC[C@H](N[C@H]2CC[C@@](O)(c3ccc(-c4ncccn4)cn3)CC2)C1)c1cccc(C(F)(F)F)c1 | false (0)

Below 30% on Population Fragmented Nuclei (%)? Entry C[C@H]1[C@H]2CC[C@H]3[C@@H]4CC=C5C[C@@H](N(C)C)CC[C@]5(C)[C@H]4CC[C@]23CN1C
true (1)

* * *

# Tested on: U2OS
# Protocol Details: Multiplex assay against U2OS
# Type: toxicity, cell-based
# Run Conditions: human, 24 h, 10 µM, compound concentration 10 uM, replicate 2
I'd be grateful if you could share measured Population Pyknosed Nuclei (%) for these entries.
Numbers only, in %.

Solved cases (2 shown):
1) N#Cc1c(N)nc(SCc2csc(-c3ccc(Cl)cc3)n2)c(C#N)c1-c1ccc(OCCO)cc1 | 24
2) C[C@@H]1C[C@H]2[C@@H]3CCC4=CC(=O)C=C[C@]4(C)[C@@]3(F)[C@@H](O)C[C@]2(C)[C@@]1(O)C(=O)CO | 5

Hello, I would appreciate it if you could give Population Pyknosed Nuclei (%) for each entry below.
1. O=C(O)Cc1ccccc1Nc1c(Cl)cccc1Cl
2. O=C(NCC(=O)N1CC[C@H](N[C@H]2CC[C@@](O)(c3ccc(-c4ncccn4)cn3)CC2)C1)c1cccc(C(F)(F)F)c1

7
7

Lab note: each compound below needs its Population Pyknosed Nuclei (%) filled in.
1. C[C@H]1[C@H]2CC[C@H]3[C@@H]4CC=C5C[C@@H](N(C)C)CC[C@]5(C)[C@H]4CC[C@]23CN1C
2. CNC[C@H](O)c1ccc(O)c(O)c1 [EPINEPHRINE]
3. CCCC(CCC)C(=O)O
4. N[C@@]1(C(=O)O)CO[C@H]2[C@H](C(=O)O)[C@H]21
5. CN(C)c1ccnc2sc3c(=O)n(N4CCCCCC4)cnc3c12
6. CCCN1CCC[C@@H]2Cc3n[nH]cc3C[C@H]21.Cl [QUINPIROLE HYDROCHLORIDE]
7. Cc1ccccc1C(=O)Nc1ccc(C(=O)N2CCCC(N(C)C)c3ccccc32)cc1.Cl (stereo not given)

8
22
4
6
13
8
18

Batch: Population Pyknosed Nuclei (%) for all items listed.
1. O=C1COc2nccc(-c3ccccc3F)c2CN1Cc1cc(C(F)(F)F)cc(C(F)(F)F)c1
2. COc1c(C)cc(NC(=O)c2nn(Cc3ccc(F)cc3)c3c2CN(C(=O)c2ccc[nH]2)C[C@]3(C)C(N)=O)cc1C
3. O=C(NCCO)c1cccc(-c2cc(Nc3ccc(OC(F)(F)F)cc3)ncn2)c1
4. CN1CCN2c3ncccc3Cc3ccccc3C2C1 (stereo not given)

1: 8; 2: 33; 3: 5; 4: 5

Look up Population Pyknosed Nuclei (%) for the entries below, preserving their order.
1. CC1(COc2ccc3c(c2)ncn3-c2ccc3cccc(N4CCC(N)CC4)c3n2)COC1
2. CN(C)CCCc1cc(C(=O)Nc2ccc(-c3ccncc3)cc2)ccc1O.Cl.Cl
3. COc1cc(NC(=O)CCN2CCC(OC(=O)Nc3ccccc3-c3ccccc3)CC2)c(Cl)cc1CNC[C@H](O)c1ccc(O)c2[nH]c(=O)ccc12
4. CCCn1c(=O)c2[nH]c(C3CCCC3)nc2n(CCC)c1=O
5. CC(=O)NCCc1c(Cc2ccccc2)[nH]c2ccccc12

[34, 15, 27, 6, 8]
